Target: CYCLIN K (nuclear staining in CAL-120 cells) (Homo sapiens, UniProt O75909)
Construct: endogenous in cells; host or cells: CAL-120 human breast cancer cells (DSMZ ACC 459)
Sequence (O75909 whole entry): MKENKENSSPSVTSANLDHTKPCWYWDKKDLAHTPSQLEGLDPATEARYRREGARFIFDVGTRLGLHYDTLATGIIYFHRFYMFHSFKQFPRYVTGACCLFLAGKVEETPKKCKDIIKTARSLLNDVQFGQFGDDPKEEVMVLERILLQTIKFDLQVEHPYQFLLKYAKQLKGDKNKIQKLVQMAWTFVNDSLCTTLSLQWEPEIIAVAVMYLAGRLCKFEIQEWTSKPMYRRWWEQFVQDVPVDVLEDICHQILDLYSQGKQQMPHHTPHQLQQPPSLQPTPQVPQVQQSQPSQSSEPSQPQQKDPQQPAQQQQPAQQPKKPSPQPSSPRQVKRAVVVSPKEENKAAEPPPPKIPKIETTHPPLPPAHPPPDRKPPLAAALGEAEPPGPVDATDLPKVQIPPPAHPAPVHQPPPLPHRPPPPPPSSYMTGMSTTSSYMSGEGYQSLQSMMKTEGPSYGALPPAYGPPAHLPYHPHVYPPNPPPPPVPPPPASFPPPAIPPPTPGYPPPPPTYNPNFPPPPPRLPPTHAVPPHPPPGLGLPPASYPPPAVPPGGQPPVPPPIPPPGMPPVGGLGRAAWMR
Sequence (Q9NYV4 whole entry partner): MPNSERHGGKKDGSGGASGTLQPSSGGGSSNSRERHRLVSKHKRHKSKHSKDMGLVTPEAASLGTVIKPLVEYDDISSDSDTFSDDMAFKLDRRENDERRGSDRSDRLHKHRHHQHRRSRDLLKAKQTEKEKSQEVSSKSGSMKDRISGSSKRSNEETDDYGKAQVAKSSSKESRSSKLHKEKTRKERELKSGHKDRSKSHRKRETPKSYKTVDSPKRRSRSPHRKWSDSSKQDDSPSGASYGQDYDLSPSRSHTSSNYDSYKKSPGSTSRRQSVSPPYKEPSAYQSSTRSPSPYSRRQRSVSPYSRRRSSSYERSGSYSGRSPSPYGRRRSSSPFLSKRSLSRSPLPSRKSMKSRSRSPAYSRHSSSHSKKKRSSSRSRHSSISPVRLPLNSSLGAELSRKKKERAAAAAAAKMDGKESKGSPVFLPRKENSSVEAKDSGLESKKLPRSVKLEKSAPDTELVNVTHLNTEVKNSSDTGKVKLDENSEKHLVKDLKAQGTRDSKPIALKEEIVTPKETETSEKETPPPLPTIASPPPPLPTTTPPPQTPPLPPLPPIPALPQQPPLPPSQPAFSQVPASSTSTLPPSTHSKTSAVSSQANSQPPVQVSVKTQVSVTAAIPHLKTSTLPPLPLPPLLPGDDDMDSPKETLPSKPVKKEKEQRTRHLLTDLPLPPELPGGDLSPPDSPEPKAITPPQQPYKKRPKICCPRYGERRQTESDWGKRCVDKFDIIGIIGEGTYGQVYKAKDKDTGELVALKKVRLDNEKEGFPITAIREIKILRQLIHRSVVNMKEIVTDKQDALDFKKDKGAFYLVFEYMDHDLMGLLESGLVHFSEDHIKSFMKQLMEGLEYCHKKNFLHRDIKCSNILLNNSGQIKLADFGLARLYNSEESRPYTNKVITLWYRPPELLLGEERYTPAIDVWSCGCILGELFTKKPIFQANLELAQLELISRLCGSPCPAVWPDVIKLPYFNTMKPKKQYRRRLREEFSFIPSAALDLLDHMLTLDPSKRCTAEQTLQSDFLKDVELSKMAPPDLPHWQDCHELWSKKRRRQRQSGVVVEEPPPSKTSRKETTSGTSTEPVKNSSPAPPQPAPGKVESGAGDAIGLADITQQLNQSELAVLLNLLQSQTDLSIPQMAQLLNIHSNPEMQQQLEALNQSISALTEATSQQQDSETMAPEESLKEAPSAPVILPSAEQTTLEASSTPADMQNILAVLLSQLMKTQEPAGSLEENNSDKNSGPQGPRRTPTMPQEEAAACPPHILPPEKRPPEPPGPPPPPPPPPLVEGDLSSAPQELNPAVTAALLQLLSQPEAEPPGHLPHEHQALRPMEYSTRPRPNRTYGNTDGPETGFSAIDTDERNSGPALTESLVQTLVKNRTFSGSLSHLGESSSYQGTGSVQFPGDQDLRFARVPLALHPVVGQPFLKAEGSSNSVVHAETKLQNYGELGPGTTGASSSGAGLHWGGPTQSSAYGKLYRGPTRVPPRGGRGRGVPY
Assay: CYCLIN K nuclear protein level: immunofluorescence high content analysis (CAL-120)
Format: cell-based
Conditions: 24 h, 50% reduction of nuclear CCNK staining intensity, median, read-out: CYCLIN K degradation IF, DC50-[mol/l] (median)
Experimental: 8. CYCLIN K nuclear protein level: immunofluorescence High Content Analysis CAL-120 human breast cancer cells (DSMZ ACC 459) are seeded in 1536-well microtiter plates (800 cells per well) containing 50 nanoL of compounds in Dose-Response. Control wells received DMSO or Example 4. […] Nuclear and cytoplasmic intensity as well as the nuclear/cytoplasmic intensity ratio is determined by automated image analysis using custom generated scripts (MetaXpress). […]

COMPOUND: Brc1cnn2c(NCc3nnc(-c4cccnc4)[nH]3)nc(N3CCOCC3)nc12
DC50 / nM: 9.25

COMPOUND: Fc1cccc2[nH]c(CNc3nc(N4CCOCC4)nc4c(C(F)(F)F)cnn34)nc12
DC50 / nM: 3.21

COMPOUND: Fc1cccc(-c2nnc(CNc3nc(N4CCNCC4)nc4c(Br)cnn34)[nH]2)c1
DC50 / nM: 1.11

COMPOUND: Brc1cnn2c(NCc3nc4ccccc4[nH]3)nc(N3CCNCC3)nc12
DC50 / nM: 0.216

COMPOUND: CN1CCN(c2nc(NCc3nc4c(F)c(F)ccc4[nH]3)n3ncc(C4CC4)c3n2)CC1
DC50 / nM: 0.0663

COMPOUND: OC[C@H]1CCCCN1c1nc(NCc2nc3ccccc3[nH]2)n2ncc(Br)c2n1
DC50 / nM: 3.05

COMPOUND: Fc1ccc2[nH]c(CNc3nc(N4CCOCC4)nc4c(-c5ccnnc5)cnn34)nc2c1F
DC50 / nM: 1.25

COMPOUND: C[C@@H]1CN(c2nc(NCc3nc4ccccc4[nH]3)n3ncc(Br)c3n2)CCN1
DC50 / nM: 0.973

COMPOUND: CN1CCN(c2nc(NCc3nc4cc(C(F)(F)F)ccc4[nH]3)n3ncc(C4CC4)c3n2)CC1
DC50 / nM: 1.57

COMPOUND: CN1CCN(c2nc(NCc3nc4c(F)c(F)ccc4[nH]3)n3ncc(C4CC4(F)F)c3n2)CC1 (stereo not drawn)
DC50 / nM: 3.86

COMPOUND: CCc1cnn2c(NCc3nc4ccccc4[nH]3)nc(N3CCOCC3)nc12
DC50 / nM: 1.74

COMPOUND: FC(F)(F)c1ccc2[nH]c(CNc3nc(N4CC5CCC(C4)N5)nc4c(C5CC5)cnn34)nc2c1
DC50 / nM: 0.493

COMPOUND: Brc1cnn2c(NCc3nc4ccccc4[nH]3)nc(N3CCOCC3C3CC3)nc12 (stereo not drawn)
DC50 / nM: 2.62

COMPOUND: Clc1cccc(-c2cnc(CNc3nc(N4CCOCC4)nc4c(Br)cnn34)[nH]2)c1
DC50 / nM: 3.87

COMPOUND: OC[C@@H]1CCCCN1c1nc(NCc2nc3c(F)c(F)ccc3[nH]2)n2ncc(C3CC3)c2n1
DC50 / nM: 0.929

COMPOUND: CN(CC(C)(C)O)c1nc(NCc2nc3ccccc3[nH]2)n2ncc(Br)c2n1
DC50 / nM: 4.19

COMPOUND: Fc1ccc2[nH]c(CNc3nc(N4CCOCC4)nc4c(CC(F)(F)F)cnn34)nc2c1
DC50 / nM: 1.02

COMPOUND: C[C@@H]1CN(c2nc(NCc3nc4ccccc4[nH]3)n3ncc(Br)c3n2)C[C@H](C)O1
DC50 / nM: 0.735

COMPOUND: Fc1cccc2[nH]c(CNc3nc(N4CCOCC4)nc4c(Br)cnn34)nc12
DC50 / nM: 0.467

COMPOUND: Brc1cnn2c(NCc3ncc(-c4ccccc4)[nH]3)nc(N3CCOCC3)nc12
DC50 / nM: 1.02

COMPOUND: COc1cccc2[nH]c(CNc3nc(N4C[C@@H]5CCCN[C@@H]5C4)nc4c(C5CC5)cnn34)nc12
DC50 / nM: 0.347

COMPOUND: OC[C@H]1CCCCN1c1nc(NCc2nnc(-c3ccccc3)[nH]2)n2ncc(Br)c2n1
DC50 / nM: 2.77

COMPOUND: Fc1c(Cl)ccc2[nH]c(CNc3nc(N4CCOCC4)nc4c(Br)cnn34)nc12
DC50 / nM: 0.227

COMPOUND: CN(CC(C)(C)O)c1nc(NCc2nc3c(F)c(F)ccc3[nH]2)n2ncc(C(F)(F)F)c2n1
DC50 / nM: 1.78

COMPOUND: Brc1cnn2c(NCc3nnc(-c4ccccc4)[nH]3)nc(N3CC4(COC4)C3)nc12
DC50 / nM: 16.4

COMPOUND: Brc1cnn2c(NCc3ncc(-c4cccnc4)[nH]3)nc(N3CCOCC3)nc12
DC50 / nM: 11.8

COMPOUND: COc1cccc2[nH]c(CNc3nc(N4CCN(C)CC4)nc4c(C5CC5)cnn34)nc12
DC50 / nM: 0.763

COMPOUND: COc1ccc2[nH]c(CNc3nc(N4CCN(C)CC4)nc4c(Br)cnn34)nc2c1
DC50 / nM: 1.3

COMPOUND: CC(C)c1cnn2c(NCc3nc4ccccc4[nH]3)nc(NCC(C)(C)O)nc12
DC50 / nM: 3.6

COMPOUND: OC[C@@H]1CCCCN1c1nc(NCc2nnc(-c3ccccc3)[nH]2)n2ncc(Br)c2n1
DC50 / nM: 11.7

COMPOUND: Brc1cnn2c(NCc3nc4ccccc4[nH]3)nc(N3CCCCC3)nc12
DC50 / nM: 1.54

COMPOUND: Fc1cc2nc(CNc3nc(N4CCOCC4)nc4c(Br)cnn34)[nH]c2cc1Cl
DC50 / nM: 0.52

COMPOUND: N#Cc1cccc(-c2nnc(CNc3nc(N4CCOCC4)nc4c(Br)cnn34)[nH]2)c1
DC50 / nM: 0.843
